test: label from the status in PepcDB records;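 note: failed if final PepcDB status was selected cloned or expressed and not failed if soluble or beyond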
experimental.endpoint: protein production

MNSLPGSIQTSRTNQQRPLISVIVPAYNAEDFILEALRSITAQDYEPLEILLVDDGSTDGTADLVRREMPTVRIIRQDNTGVAEARNTGLRNACGEFICLLDADDGWCPGKLHAQVQYLQQHPQTGAVYHAWQVWRPDAEGNFVSMPAPVVADSTAIDPALSGWIYPQLLMDCIVHTSTIMMRREFVEQLGFFRAELINGEDYDYWLRLSRLTRIDKLVGVYSFYRGSPGSLTNSVKPVNYEYNVVSAAAAKWGLAAPDGRALAAVDFQRRLGKLAFDFAYRHYRWGSARIARRAALQAWRHDPRRYKALLFWLASFFKREPRSAVQG :: failed
SQKSLKRGQELNNQYETKAKRLKIDPCLVVDSPFNHGFTAQEILKGAKNNGEISFLIRFWHLDQPQVVPSGIAYVEIPQMVLKFYENHCNFHDYLNNYIS :: failed

###

test: label from the status in PepcDB records
experimental.endpoint: protein production

Worked examples follow.
MKTHFVKLLTQPESAWVQIRSEEQRKPWQYLPHLLLWALVPALCLLIGVTQVGWSLVDAERVRLSLASAMQLALLLYLTALLGTVLMGGFIRWMSRPFEARPTLNQCVGFAAYTATPYFIAGISGLYPSRWLAVAALLVASAYASYLLLVGLPKFMYLNQERGRLYAASVWGVGLLVLVTILVSMILFWFNVLAPQYLRPLAAL :: failed
ESRLDRILESGVLRVATTGDYKPFSYRTEEGGYAGFDVDMAQRLAESLGAKLVVVPTSWPNLMRDFADDRFDIAMSGISINLERQRQAYFSIPYLRDGKTPITLCSEEARFQTLEQIDQPGVTAIVNPGGTNEKFARANLKKARILVHPDNVTIFQQIVDGKADLMMTDAIEARLQSRLHPELCAVHPQQPFDFAEKAYLLPRDEAFKRYVDQWLHIAEQSGLLRQ :: failed
MATATETSKATTKTQASAAADRESLTVSRAFNAPRDLVFQAWSAAEHLKHWFCPQGFTIPECEVEFRPGGKFDLWMRSLDGNYSHWIRGHYVEIIPHSRLVLDMTVVTEAGVALFNANTSVTFETVCGGTEMSVTQRYTALDPSAGNFTRGAEEGWAQTLDRLEKEVARIAAATPARSVAHGVFTIERTYDASPELVFRALSDPVAKAQWFNGGPGYTEVKRTMDVRPGGREHLQGRWENGLVSTFDAVYFDVIPNERLVYSYEMHMGERKISVSLATFELKRAGQGTRLVMTEQGAFLDGYDDAGSREHGSGLLLDAIGEWLKAMTKR :: failed
MNQVEMTEFPVGKPQEALYGVASTPDGALWFTLAKGNAIGRLSPDGAVSRFPLPHTDGQPTTITCGPDGRPWFTLSSANAIGRLAPDGALRMFELPRPASRPFGIAGGHDGCLWFAEMAGDRIGRITIDGDIEEYDLPVKGGYPSCMAAGRDGLMWFTLNQAGAVGSISATAAPRIFPLGAADAAPVGIASDAQGALWIAQAGNGAIVRFDAGGRITEFPLHSRAARPHAIAADAAGNLWFTEWGANRIGRISEAGDLAGYELAAPGSEPHGIAIDPHGCVWAALETGRLVRLQASPRDLEHHHHHH :: not failed
MTESNFDLPIISVIIPAYNCEKTIKKTIDSVLDQSFTDFELIVINDGSQDATLDIVSQIEDSRIKIFSFENAGGNVSRNRGLNLAVGKFISFLDADDIWTPNKLESQLEALHNNPGFHVAYSWTDYIDEDGNFLISGRRVTLNGDVYKKLFINNFLENGSNPLICKEALIALGGFDESLKAAQDWDMWLRLANKYSFVAVPYVQILYRVSSNSLSSNLVRQEKACKQVLEKAYQARPAIGNHILHLSIANLYKYLACKALQKPYSRSKGLAAVKFIWQYFLYDSSRMRRINSTLKLLFKALIIIILPAGLSTELLAKMRTKSLNPQLSAISGS :: failed
THVVCSDSGLEVLYQSCDPLQDFGFSVEKCSKQLKSNINIRFGIILREDIKELFLDLALMSQGSSVLNFSYPICEAALPKFSFCGRRKGEQIYYAGPVNNPEFTIPQGEYQVLLELYTEKRSTVACANATIMCS :: not failed
MTRTSKIAVIGGGMAGLAAAAGFDDAGFVVELYERQSYDSKRVNCGEAMTAVSKIPLEPTVENGFLNPLPAMEVEVYDGIDADRHRTGAGTFPAADTYITDRNVVEQSWAEQLSEKGVDIHENQSITRTDFHEFTDEYDLVVDATGQPSLSSKALGTTNEYSGYMVALNSDVEGDFTELYPNSRIILENYTGYSWAFPKTSQRANVGIGWTVSDRPSDYMKALREACKRNGWPVPSQERTNVAIIPEGPSLDPDRTYLPEHSVVRVGDAAGIANRLTGKGISQAVESGFLAAELANSGQLHNFPDSLYQRMKTEYIFATVVRYFLETRNPKVLGAAIRAAAGIDIEDVDRSPSTVLLRLLRHPVLFARIFSRRRVLNRVYGGMTNQWELIN :: failed
MSLEAIRIGEINSYSQIPAFTLPYRNGWQLAVEQINAAGGLLGGRPLEVISRDDGGDPGKAVTAAQELLTRHGVHALAGTFLSHVGLAVSDFARQRKVLFMASEPLTDALTWEKGNRYTYRLRPSTYMQAAMLAAEAAKLPITRWATIAPNYEYGQSAVARFKELLLAARPEVTFVAEQWPALYKLDAGPTVQALQQAEPEGLFNVLFGADLPKFVREGRVRGLFAGRQVVSMLTGEPEYLNPLKDEAPEGWIVTGYPWYDIDTAPHRAFVEAYRARWKEDPFVGSLVGYNTLTAMAVAFEKAGGTESETLVETLKDMAFSTPMGPLSFRASDHQSTMGAWVGRTALRDGKGVMVDWRYVDGGSVLPPPEVVSAWRPAGEGHHHHHH :: not failed

// query protein production lookup needed for `MSWLFSTLVFFLTLLTAGIALYLITARRYQSSNSVANSYDQWTEDGILEFYWGEHIHLGHYGSPPQRKDFLVAKSDFVHEMVRWGGLDKLPPGTTLLDVGCGIGGSSRILARDYGFAVTGITISPQQVQRAQELTPQELNAQFLVDDAMALSFPDNSFDVVWSIEAGPHMPDKAIFAKELMRVLKPGGIMVLADWNQRDDRQKPLNFWEKPVMQQLLDQWSHPAFSSIEGFSELLAATGLVEGEVITADWTKQTLPSWLDSIWQGIVRPEGLVRFGLSGFIKSLREVPTLLLMRLAFGTGLCRFGMFRALRADTVRSSAEQTSAIKVAQK` , thanks.
// result failed

// query protein production lookup needed for `MGHHHHHHSHMQDRRSVCIFLPNDESLNIIINVKILCHQLLVQVCDLLRLKDCHLFGLSVIQNNEHVYME` , thanks.
// result not failed

// query protein production lookup needed for `MRHLKSGRKLNRHSSHRLALYRNQAKSLLTHGRITTTVPKAKELRGFVDHLIHLAKRGDLHARRLVLRDLQDVKLVRKLFDEIAPRYRDRQGGYTRVLKLAERRRGDGAPLALVELVE` , thanks.
// result not failed

// query protein production lookup needed for `MIPDLVPVSLTPVTVVPNTVNTMTATIENQGNKDSTSFNVSLLVDGIVVDTQTVTSLESENSTNVDFHWTLDGTANSYTLTVNVDPENAVNEGNESNNTLTALVGTLEHHHHHH` , thanks.
// result not failed

###

test: label from the status in PepcDB records
experimental.endpoint: protein production

Worked examples follow.
MNTFGIFLTISAYTFFSWAYSKKKTPILNPVLLSILLIALILKVGNISYEKYMESARFLSFLLGPAVVSLAIPLYKQINIVKEYKKEIATGIITGGTTAILSAVYILKAFNSPEILQRTIAPKSVTTAIAMGVSEKIGGIPELTAVLVILTGILGNALAPELLDFFKIKDRVARGLATGVSSHGLGTARIILEDELSGAVSGLAMALNGVYTAFLLPLIIELIV :: failed
MFELWYIHISLAIVSAIFSILIFLEFKSLRKEFHGKLSGVLLLISVLLLFESVVNAVAFSMWSYGHDPVYVYPSMAIAIVSTSVIILFYYYVAKV :: failed
EHIVPSNQQQIVRVLRTPGNNLHEVETAQGQRFLVSMPSKYRKNIWIKRGDFLIVDPIEEGEKVKAEISFVLCKDHVRSLQKEGFWPEAFSEVAEKHN :: not failed
MGHHHHHHSHMGKKLLVLDVDYTLFDHRSCAETGVELMRPYLHEFLTSAYEDYDIVIWSATNMKWIEAKMKELGVSTNANYKITFMLDSAAMITVHTPRRGLIDVKPLGVIWGKFSEFYSKKNTIMFDDIGRNFLMNPQNGLKIRPFMKAHLNRDKDKELLKLTQYLKEIAKLDDFLDLNHKY :: failed
MNHDIDIKKVRLNCFRQSKVPGEFMLQMRIPGGIVDAKYLSQIQEIAETWGNGTFHMGMRQTFNIPGIKYENIQAVNKFIENYLQEVEVDRCNCDMKVDENGYPTIGARNVMACIGNSHCIKANVDTKDMANKIEKLVFPSHYHIKVSVAGCPNDCAKGHFQDFGVIGQARMEYHEERCIGCGACVRACEHHATRVLSLNDKGLVDKDPCCCVGCGECVLACPASAWTRKPEKFYRIVIGGRTGKQTPRMGKTFINFATEEVVLGIFANWQKFSAWALDYKPEYLHGGHLIDRAGYHKFKEIILDGVELNPEALVADNIFWAETEYRSNFNVKPIKMHKTIESNRPLRLEHHHHHH :: failed
MRILLVLAHPLEDSFAAAVARTAREALEASGHVVDLFDLYAENFDPRLSKAERGGYFDQPYDTSAVADIVARLKAADGLILVFPQWWFNFPAILKGFFDRVFAPGVAFSHDAAGGRIVPQLTHIRLLYALTTTGSPWWLVRLYMGDPVRRLLKRGIAAFCSKGLNFRMLSLHDMDRASDVKRRAHLDRVRKLLSAIR :: failed
MNLRGILPFAHDTLRKVVRSGDYVVDATCGNGHDTLLLAELVGINGHVLGFDIQQLAIDATNTRLENAGVSSQVELVCASHARIPEYTSKPVRAAIFNLGYLPGGDKEITTTADSTLESIGHLMELLEVGGVIILVIYHGHPAGKQEKDAVMTFCEAIPQQDFHVLSYNFINQKNDAPFVIIIEKRKPRQSLEHHHHHH :: not failed
MKSKWIFIQWFKYNNIRMKDESTNKFGSLNLAVLVLSVYVLGALIVDTTIKLPEETSRLLNYIDLAICIFFFVEFCIRLYHADSKMKFMRWGWIDLVSSIPMINFLRFGRVFRLIRLFRILRAFRTTKEFVTYVFRIKAQGAFTSATILAILLIIFSSIAILQVENASTSNITTAEDAIWWSYVTITTVGYGDKYPVTTEGRIIAMFLMTAGVGLFGTFTAYIASLFVSDNKKEETETKE :: failed

// query protein production lookup needed for `KYYWNNVNYDPATLFSASCLLFYVLDAIIFEHHLSSSFELQHEGYGCLLLLRYAATPYLLTAVTKYFYEQRVPISCWYAPLAVAALLSLGLLVKRFSCAYKYKYRLNSQSPIFANIETIHTYQGSRLLLSGMWGWVRQPNYLGDIVALLALAAPMALRPAWPPVLGLSLIILLLLHRATRANARNQARYHSSWQRYSTQVRSYILPRVY` , thanks.
// result failed

// query protein production lookup needed for `MMTPEQIATVMTGKVEAAGKGRHEAVLASPMIQNHAPFLHLADDGALICAWFGGTLEGKSDISIFTSVLAAGSNKWGEPQRLSFDPDHSEQNPVLFAAPGNTLLLFHTSQPSGNQDECRIRMAEVSRDASDPTRLTAGEGLYLDLPRGCFVRAPLTVRADGAWLLPIFRCIQRPGQKWNGSHDRAAVGISEDCGKSWRLEDIDQSTGCVHMSPLVIGDEKLAAVFRRRQADFVYRTESADGGRTWSAPQATDVPNNNSSIAAIRLNDGRIAMICNPTNAAMSSDRRASLYDELGEDDDRPDANPDGGCVPIWGVPRAPVTVCISEDGAKSFPQRITIEDGPGTCLSNNSIDGHNKEMSYPWLLEGADGSLHIAYTYYRRAIKYVRLAPGWARAADGR` , thanks.
// result failed

// query protein production lookup needed for `QRRLSIFVDGNNMFYAQQKNNWFFDPRRVLDYFTCDPTVRLINAFWYTGLKDSQDQRGFRDALISLGYTVRTKILKEYYDDVSGRYSQKANLDIEIVVDMFNTVDQYDQVILFSGDGDFERAIELLRSKNTHITVVSTEGMIARELRNATDCYIDLNNLRAEIEKT` , thanks.
// result failed

// query protein production lookup needed for `MSRVPEPSVFLVVDEAKRKARERGVGLIDLSIGSTDLPPPEAPLKALAEALNDPTTYGYCLKSCTLPFLEEAARWYEGRYGVGLDPRREALALIGSQEGLAHLLLALTEPEDLLLLPEVAYPSYFGAARVASLRTFLIPLREDGLADLKAVPEGVWREAKVLLLNYPNNPTGAVADWGYFEEALGLARKHGLWLIHDNPYVDQVYEGEAPSPLALPGAKERVVELFSLSKSYNLAGFRLGFALGSEEALARLERVKGVIDFNQYAGVLRMGVEALKTPKEVVRGYARVYRERALGMAEALKGVLSLLPPRATMYLWGRLPEGVDDLEFGLRLVERGVALAPGRGFGPGGKGFVRIALVRPLEELLEAAKRIREALD` , thanks.
// result not failed

// query protein production lookup needed for `MVDPNEHKKAVKTQQQDDEQTFEAVARAWHTDNKKWSESHAERILKSLSDNIFPAIGGTHVANLKTRDLLTPIKSVERSGRLEVAKRLKQRVTAIMTYAVQNGLIDYNPAQDMAGAIMPGKVEHRLEHHHHHH` , thanks.
// result failed
